# testedSystem: T1, human NPFF2b (hNPFF2) receptor (human, UniProt Q9Y5X5 103-522)
# T1 construct: also called NPFF-like; hNPFF-like
# T1 sequence (Q9Y5X5 103-522): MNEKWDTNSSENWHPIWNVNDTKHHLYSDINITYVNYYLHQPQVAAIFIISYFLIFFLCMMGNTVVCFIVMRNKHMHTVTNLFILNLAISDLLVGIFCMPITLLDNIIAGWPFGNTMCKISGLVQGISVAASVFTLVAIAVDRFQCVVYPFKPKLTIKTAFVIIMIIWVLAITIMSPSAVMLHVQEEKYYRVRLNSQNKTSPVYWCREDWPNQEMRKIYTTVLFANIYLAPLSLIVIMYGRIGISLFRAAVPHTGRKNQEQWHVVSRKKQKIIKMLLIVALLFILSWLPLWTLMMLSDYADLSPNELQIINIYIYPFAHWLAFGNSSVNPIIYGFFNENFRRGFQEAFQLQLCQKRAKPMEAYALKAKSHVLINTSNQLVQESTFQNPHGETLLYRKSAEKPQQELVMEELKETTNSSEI
# methodSummary: radioligand saturation binding, transiently transfected HEK-293 cells
Non-standard residues stand in square brackets, D forms with d. No end group written: not given here. *: point of attachment. NMeF = CN[C@@H](Cc1ccccc1)C(=O)O; 125I = [125I]*

{"binder": "[dY](125I)L[NMeF]QPQRF-NH2 [[^125I][D-Tyr^1-(NMe)Phe^3]NPFF]", "Kd, nM": 0.17}
